# system: NA from A/H3N2 (Influenza A virus)
# Sequence (O91745 whole entry, looked up): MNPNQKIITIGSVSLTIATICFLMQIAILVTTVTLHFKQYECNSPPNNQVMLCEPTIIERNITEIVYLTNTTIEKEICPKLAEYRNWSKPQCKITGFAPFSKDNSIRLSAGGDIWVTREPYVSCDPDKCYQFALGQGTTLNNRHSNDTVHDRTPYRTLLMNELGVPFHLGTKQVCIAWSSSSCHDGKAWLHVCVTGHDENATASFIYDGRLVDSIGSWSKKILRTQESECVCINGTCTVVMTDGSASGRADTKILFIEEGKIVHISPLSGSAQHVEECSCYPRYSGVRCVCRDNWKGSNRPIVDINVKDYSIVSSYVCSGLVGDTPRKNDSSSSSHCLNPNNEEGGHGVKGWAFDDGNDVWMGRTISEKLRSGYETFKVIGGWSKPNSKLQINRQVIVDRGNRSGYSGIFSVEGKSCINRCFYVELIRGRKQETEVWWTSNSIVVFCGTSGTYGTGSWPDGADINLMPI
# assay_notes: biochemical
# Assay type: biochemical, seasonal A/H3N2
property_name: Inhibition rate, 1 μM (%)
Quick note: give the figure in %, leave out the unit.

Examples from the recorded data:
> print(dat)
                         structure.as.smiles          property.name  recorded.result
 1  CCC(CC)O[C@@H]1C=C(C(=O)O)C[C@H](NC(=O)c2cnn(Cc3cccc([N+](=O)[O-])c3)c2)[C@H]1NC(C)=O  Inhibition rate, 1 μM            −5.33
 2  CCC(CC)O[C@@H]1C=C(C(=O)O)C[C@H](NC(=O)c2cc(C3CC3)nn2-c2ccccc2)[C@H]1NC(C)=O  Inhibition rate, 1 μM            19.92
 3  CCC(CC)O[C@@H]1C=C(C(=O)O)C[C@H](NC(=O)c2cnn(-c3ccc(OC)cc3)c2)[C@H]1NC(C)=O  Inhibition rate, 1 μM             6.31
 4  CCC(CC)O[C@@H]1C=C(C(=O)O)C[C@H](NC(=O)c2cc(-c3ccc(Cl)cc3)n[nH]2)[C@H]1NC(C)=O  Inhibition rate, 1 μM            14.65
 5  CCC(CC)O[C@@H]1C=C(C(=O)O)C[C@H](NC(=O)c2cc(-c3ccccc3)n[nH]2)[C@H]1NC(C)=O  Inhibition rate, 1 μM             5.84
 6  CCC(CC)O[C@@H]1C=C(C(=O)O)C[C@H](NC(=O)c2cc(-c3ccc(C(F)(F)F)cc3)n[nH]2)[C@H]1NC(C)=O  Inhibition rate, 1 μM             3.44
 7  CCC(CC)O[C@@H]1C=C(C(=O)O)C[C@H](NC(=O)c2cc(C3CC3)nn2-c2ccc(Br)cc2)[C@H]1NC(C)=O  Inhibition rate, 1 μM             2.19
 8  CCC(CC)O[C@@H]1C=C(C(=O)O)C[C@H](NC(=O)c2cnn(Cc3ccc(C(F)(F)F)cc3)c2)[C@H]1NC(C)=O  Inhibition rate, 1 μM            −2.25
 9  CCC(CC)O[C@@H]1C=C(C(=O)O)C[C@H](NC(=O)c2cc(C3CC3)nn2-c2cccc(C)c2)[C@H]1NC(C)=O  Inhibition rate, 1 μM             0.70
10  CCC(CC)O[C@@H]1C=C(C(=O)O)C[C@H](NC(=O)c2cnn(Cc3ccccc3Cl)c2)[C@H]1NC(C)=O  Inhibition rate, 1 μM            −1.46

Recorded Inhibition rate, 1 μM (compound `CCC(CC)O[C@@H]1C=C(C(=O)O)C[C@H](NC(=O)c2cnn(Cc3cccc(Cl)c3)c2)[C@H]1NC(C)=O` ): 5.74

Recorded Inhibition rate, 1 μM (compound `CCC(CC)O[C@@H]1C=C(C(=O)O)C[C@H](NC(=O)c2cc(-c3ccc(OC)cc3)n[nH]2)[C@H]1NC(C)=O` ): 14.83

Recorded Inhibition rate, 1 μM (compound `CCC(CC)O[C@@H]1C=C(C(=O)O)C[C@H](NC(=O)c2cc(C3CC3)n(-c3ccc(C(F)(F)F)cc3)n2)[C@H]1NC(C)=O` ): 8.26

Recorded Inhibition rate, 1 μM (compound `CCC(CC)O[C@@H]1C=C(C(=O)O)C[C@H](NC(=O)c2cc(-c3ccc(F)cc3)n[nH]2)[C@H]1NC(C)=O` ): 33.62
